# assayed_target: Histamine H3 receptor (Mus musculus)
# method_description: Histamine H3 receptor antagonist potency in vivo in mice after peroral administration
# Type: functional, organism-based
reported_property: ED50 (mg/kg)

CCC(=O)c1ccc(OCCCc2c[nH]cn2)cc1F: 0.9
COc1ccc(OCCCc2c[nH]cn2)cc1: 0.2
CC(=O)c1ccc(OCCCc2c[nH]cn2)cc1C(F)(F)F: 0.64

(a) CC(C)(C)CC(=O)c1ccc(OCCCc2c[nH]cn2)cc1
(b) CCCCC(=O)c1ccc(OCCCc2c[nH]cn2)cc1
Query: Hey, between a and b which has a smaller measured ED50? # answer = label of selected item
Response: b

From: ChEMBL document CHEMBL1133446
